The origin of these recorded values is PubChem BioAssay.

- Measured on: Fibroblast growth factor 10 (Homo sapiens) (UniProt O15520)
- Sequence (O15520 whole entry, looked up): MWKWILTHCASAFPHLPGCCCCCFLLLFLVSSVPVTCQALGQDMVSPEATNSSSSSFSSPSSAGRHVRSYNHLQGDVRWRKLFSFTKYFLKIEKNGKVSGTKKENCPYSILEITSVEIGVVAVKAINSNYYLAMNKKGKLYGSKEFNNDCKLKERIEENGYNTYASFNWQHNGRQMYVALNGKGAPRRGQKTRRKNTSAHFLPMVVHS
- Protocol: FGF10 binders on small-molecule microarrays, primary screen, biochemical, small-molecule microarray, 635 nm fluorescence (AID 1102)
- Condition summary: FGF10 binding, fluorescence 635 nm, higher = more signal
Here, each record is paired with measured composite z-score data.
// return just the number, without any unit appended

{"Smiles structure": "CC(C)(C)OC(=O)CC[C@]1(C(=O)NCCN2CCOCC2)N=C(c2ccc(OCCCO)cc2)O[C@H]1c1ccccc1N=[N+]=[N-]", "composite z-score": 0.177}
{"Smiles structure": "C[C@]1(C(=O)O)c2ccccc2C(=O)N(Cc2ccccc2)[C@H]1c1ccc(CO)cc1", "composite z-score": -1.97}
{"Smiles structure": "O=C1O[C@@H](c2ccccc2)[C@@H](c2ccccc2)N2[C@@H](c3ccccc3OCCO)[C@]3(C(=O)Nc4ccc(C#CC5=CCCCC5)cc43)[C@@H](C(=O)NC[C@H](O)c3ccccc3)[C@H]12", "composite z-score": 0.717}
{"Smiles structure": "COc1cc(CO)cc(I)c1O[C@H]1C=C(C(=O)NCCO)C[C@@H](NCc2ccccc2F)[C@@H]1O", "composite z-score": 1.06}

// field: composite z-score; key: CC(C)(C)OC(=O)CC[C@@]1(C(=O)O)N=C(c2ccc(OCCCO)cc2)O[C@@H]1c1ccccc1CN=[N+]=[N-] ; value = 0.0038

// field: composite z-score; key: COCC(=C=CC[C@H](O)c1ccc(OCCO)cc1)C[C@H](O)COCc1ccccc1 ; value = 0.605

// field: composite z-score; key: CCOC(=O)[C@@H]1[C@@H]2C(=O)N(CC)C(=O)[C@@H]2C[C@@H]1Sc1ccccc1 ; value = 0.448

* * *

- Measured on: Left-right determination factor 2 (Homo sapiens)
- Protocol: LEFTY2 binders on small-molecule microarrays, primary screen, biochemical, small-molecule microarray, 635 nm fluorescence scan (AID 1110)
- Condition summary: LEFTY2 binding, higher = more signal
Quantity kind: composite z-score
// return just the number, without any unit appended

# count of solved cases: 5
{"Molecule": "[N-]=[N+]=NCc1ccccc1[C@H]1OC(c2ccc(OCCCO)cc2)=N[C@@]1(CCS(=O)(=O)c1ccccc1)C(N)=O", "composite z-score": 0.264}
{"Molecule": "CN1C(=O)C2C=CC(C(O)Cc3ccccc3)N(N(c3ccccc3)c3ccccc3)C2C1=O (stereo unspecified)", "composite z-score": -0.268}
{"Molecule": "CCOC(=O)C1=CC[C@@H](c2ccc([N+](=O)[O-])cc2)N(S(=O)(=O)c2ccc(C)cc2)[C@H]1c1ccccc1", "composite z-score": 0.995}
{"Molecule": "CCCNC(=O)[C@@]1(c2ccc([N+](=O)[O-])cc2)CC(=O)N(C2CCCCC2)[C@@H]1c1ccc(CO)cc1I", "composite z-score": -0.101}
{"Molecule": "COCCOC(=O)N1C(=O)[C@@]2(c3cc(C#CC4(O)CCCCCC4)ccc31)[C@H](C(=O)N1CCCCCCC1)[C@H]1C(=O)O[C@H](c3ccccc3)[C@H](c3ccccc3)N1[C@@H]2c1ccc(OCCO)cc1", "composite z-score": 1.52}

// switching to the query molecule
// field: composite z-score; key: C=CCNC(=O)[C@H]1[C@@H]2C(=O)O[C@@H](c3ccccc3)[C@@H](c3ccccc3)N2[C@@H](c2ccccc2OCCO)[C@]12C(=O)N(C(=O)OCCOC)c1ccc(C#CC3=CCCCC3)cc12 ; value = 0.68

* * *

- Protocol: CREB reporter modulators without forskolin, primary screen, cell-based, PC12, CRE-LacZ reporter, unstimulated (AID 1145)
- Condition summary: no forskolin, luminescence, 4.5 h, higher = more signal, called active from +8 up or from −8 down
Quantity kind: z-score
// return just the number, without any unit appended

{"Compound": "CCOC(=O)C1=CC[C@@H](c2ccccc2)N(S(=O)(=O)c2ccc(C)cc2)C1", "Quantity kind": "z-score", "Endpoint result": 0.229}
{"Compound": "CN(C)CCCNC(=O)[C@@H]1c2ccccc2C(=O)N(Cc2ccc(OC(F)(F)F)cc2)[C@H]1c1ccc(CO)cc1", "Quantity kind": "z-score", "Endpoint result": -0.114}

// field: z-score; key: CC(C)(C)OC(=O)CC[C@]1(C(=O)O)N=C(c2ccc(OCCCO)cc2)O[C@H]1c1ccccc1 ; value = -0.986

// field: z-score; key: [N-]=[N+]=NCc1ccccc1C[C@@]1(C(=O)NCCN2CCOCC2)N=C(c2ccc(OCCCO)cc2)O[C@@H]1c1ccccc1N=[N+]=[N-] ; value = 0.69

// field: z-score; key: COc1ccc([Si](C)(C)[C@@H]2[C@@H](CCO)O[C@]3(C(=O)N(Cc4cccc(N5C(=O)c6cccc7cccc5c67)c4)c4ccccc43)[C@H]2C)cc1 ; value = 7.33

// field: z-score; key: CCCCN1CC=CC23O[C@@H]4C=CCOC(=O)[C@@H]4[C@H]2C(=O)N(C(C)CO)[C@@H]3C1=O (some centres not stated) ; value = -0.488

// field: z-score; key: O=C1O[C@@H](c2ccccc2)[C@@H](c2ccccc2)N2[C@@H](c3ccc(O)cc3)[C@]3(C(=O)Nc4ccc(C#CCCO)cc43)[C@@H](C(=O)Nc3nc4ccccc4s3)[C@H]12 ; value = -0.195

* * *

- Protocol: binders of probe aFGF2 on microarray, primary screen, stem cell growth factor project, biochemical, small-molecule microarray, fluorescence 635/667 (AID 1067);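 also: measures binding of biotinylated aFGF2 protein to printed compounds on slides; z-score merges feature fluorescence and signal-to-noise across triplicate slides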
- Condition summary: higher = more signal
Here, each record is paired with measured composite z-score data.
// return just the number, without any unit appended

// field: composite z-score; key: C=CCNC(=O)[C@@H]1[C@H]2C(=O)O[C@H](c3ccccc3)[C@H](c3ccccc3)N2[C@H](c2ccc(OCCO)cc2)[C@@]12C(=O)N(C(=O)OCCOC)c1ccc(C#CC3=CCCCC3)cc12 ; value = 0.0524

// field: composite z-score; key: CCOC(=O)C1=C[C@@H](c2ccccc2)N(S(=O)(=O)c2ccc(C)cc2)[C@H]1c1cccc(Cl)c1 ; value = 0.085

// field: composite z-score; key: COC(=O)[C@H](Cc1ccccc1)N1CC(/C=C/C2CC2)=C[C@@H]1[C@@H](O)Cc1ccccc1 ; value = -0.0093

// field: composite z-score; key: Cc1ccc(S[C@]2(C(=O)NCc3ccccc3)CC(=O)N(C(C)C)[C@@H]2c2ccc(CO)cc2I)cc1 ; value = -0.177

* * *

- Tested on: PRMT1 (protein arginine N-methyltransferase 1)
- Protocol: PRMT1 binders on small-molecule microarrays, primary screen, biochemical, small-molecule microarray, 635 nm fluorescence (AID 1088);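 also: binding of Prmt1 protein to compounds spotted on small-molecule microarray slides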
- Condition summary: small-molecule microarray binding, higher = more signal
Quantity kind: composite z-score
// return just the number, without any unit appended

{"Compound": "CN(C)CCCNC(=O)[C@@H]1c2ccccc2C(=O)N(CC23CC4CC(CC(C4)C2)C3)[C@H]1c1ccc(CO)cc1", "composite z-score": 1.53}
{"Compound": "Cc1ccc(S[C@]2(C(=O)NCC(F)(F)F)CC(=O)N(Cc3ccccc3)[C@@H]2c2ccc(CO)cc2)cc1", "composite z-score": 0.293}
{"Compound": "COc1ccc(CCNC(=O)[C@@]2(Sc3ccc(C)cc3)CC(=O)N(Cc3cc(C(F)(F)F)cc(C(F)(F)F)c3)[C@@H]2c2ccc(CO)cc2I)cc1", "composite z-score": 1.46}
{"Compound": "COC(=O)[C@@]1(Cc2ccccc2)[C@H]2c3cc(C(=O)N4CCCC4)n(C[C@H](O)CO)c3C[C@H]2CN1C(=O)c1ccccc1", "composite z-score": -0.956}
{"Compound": "COCCCNC(=O)[C@]1(CCC(=O)OC(C)(C)C)N=C(c2ccc(OCCCO)cc2)O[C@@H]1c1ccccc1", "composite z-score": 1.22}
{"Compound": "CC(C)C(=C=CC[C@@H](O)c1ccccc1OCCO)C[C@@H](O)COCc1ccccc1", "composite z-score": 1.29}
{"Compound": "COC(=O)C1(Cc2ccccc2)C=C2C(=C(c3ccccc3)C(=O)C2C)CN1 (stereo not drawn)", "composite z-score": -1.24}

// switching to the query compound
// field: composite z-score; key: CCOC(=CC(=O)OC)CC(O)c1cccc(Cl)c1 (stereo not drawn) ; value = 1.39

* * *

- Measured on: Pro-neuregulin-1, membrane-bound isoform (Homo sapiens)
- Protocol: NRG1 binders on small-molecule microarrays, primary screen, psychiatric disease protein project, biochemical, small-molecule microarray, fluorescence 635/667 (AID 1075);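 also: score combines 667 nm spot fluorescence with signal to noise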
- Condition summary: NRG1 binding, 635 nm fluorescence, higher = more signal
Quantity kind: composite z-score

# count of solved cases: 5
{"Compound": "NC(=O)N1C(=O)C2C(C1=O)C1C=C(CCCO)C2C(c2cccs2)N1Cc1cc2c(cc1Br)OCO2 (stereo not given)", "composite z-score": 0.453}
{"Compound": "Cc1ccc(S[C@]2(C(=O)NC3CC3)CC(=O)N(Cc3ccccc3Cl)[C@@H]2c2ccc(CO)cc2I)cc1", "composite z-score": 1.72}
{"Compound": "COC(=O)[C@H](Cc1ccccc1)N1CC(/C=C/C2CC2)=C[C@@H]1[C@@H](O)Cc1ccccc1", "composite z-score": 0.947}
{"Compound": "COc1ccc(C(O)C2C=CC3C(=O)N(Cc4ccccc4)C(=O)C3N2n2cnnc2)c2ccccc12 (stereo not given)", "composite z-score": 1.81}
{"Compound": "Cc1ccc(C(C)CC(O)C2C=CC3C(=O)N(c4ccccc4)C(=O)C3N2Nc2ccc(C(C)C)cc2)o1 (stereo not given)", "composite z-score": 1.93}

// field: composite z-score; key: O=C1O[C@@H](c2ccccc2)[C@@H](c2ccccc2)N2[C@@H](c3ccccc3OCCO)[C@]3(C(=O)Nc4ccc(C#CCCO)cc43)[C@@H](C(=O)N3CCN(c4ncccn4)CC3)[C@H]12 ; value = 1.56
